Measured inhibition at 110 µM by item
System: C. elegans
Assay: microbe, parasite or virus in culture
Conditions: Caenorhabditis elegans, 0 h, read-out: Percentage of motility inhibition 0 h, Table S2, C. elegans SS assay, 110 μM, 0 h, averages of 4 data points
Return type: number; implicit unit %.

Example entries and their recorded answers appear below.
INSERT INTO results (compound, assayed_target, observed) VALUES
  ('CCCCC(CC)CN1CN(CC(CC)CCCC)CC(C)(N)C1 (stereo not shown)', 'C. elegans', 46),
  ('CC1=CC(=O)[C@@H]2C[C@H]1C2(C)C', 'C. elegans', 4),
  ('C[n+]1cccc(C(=O)[O-])c1', 'C. elegans', 0),
  ('CN(C(=O)CN(CCO)CC(=O)N(C)C(C)(C)Cc1ccccc1)C(C)(C)Cc1ccccc1', 'C. elegans', 44);

Here is another compound to look at.
Query: Recorded inhibition at 110 µM for "C[C@H]1CO[C@@H]2Cn3cc(C(=O)NCc4ccc(F)cc4F)c(=O)c(O)c3C(=O)N12" with C. elegans, please?
Reply: 19

###

Test system: C. elegans
Assay: microbe, parasite or virus in culture
Conditions: Caenorhabditis elegans, 0 h, read-out: Percentage of motility inhibition 0 h, Table S2, C. elegans SS assay, 110 μM, 0 h, averages of 4 data points
Measured inhibition at 110 µM by item
Return type: number; implicit unit %.

Example entries and their recorded answers appear below.
INSERT INTO assay_data (molecule, assayed_target, reported_endpoint, observed) VALUES
  ('CC(=O)O[C@@H]1C[C@H](O)[C@@]23CO[C@@H](O)[C@]1(C)[C@@H]2C[C@@H](O)[C@]1(C)[C@@H]3C(=O)[C@H](OC(C)=O)[C@@]2(C)[C@H](c3ccoc3)C[C@H]3O[C@]321 [Toosendanin]', 'C. elegans', 'inhibition at 110 µM', 0),
  ('CC[C@H]1OC(=O)[C@H](C)[C@@H](O[C@H]2C[C@@](C)(OC)[C@@H](O)[C@H](C)O2)[C@H](C)[C@@H](O[C@@H]2O[C@H](C)C[C@H](N(C)C)[C@H]2O)[C@](C)(O)C[C@@H](C)[C@@H]2N[C@@H](COCCOC)O[C@H]([C@H]2C)[C@]1(C)O [Dirithromycin]', 'C. elegans', 'inhibition at 110 µM', 3),
  ('COc1cc([C@@H]2[C@H]3CO[C@@]4(O)C(=O)[C@@H]2C=C([C@H]2Oc5cc(O)cc(O)c5C(=O)[C@@H]2O)[C@@H]34)ccc1O [Silydianin]', 'C. elegans', 'inhibition at 110 µM', 17),
  ('CC1=CC(=O)C(C(C)C)CC1 (stereo not drawn) [Piperitone]', 'C. elegans', 'inhibition at 110 µM', 10),
  ('CC(=O)OC(C)(C)/C=C/C(=O)[C@](C)(O)[C@H]1[C@H](O)C[C@@]2(C)[C@@H]3CC=C4[C@@H](C=C(O)C(=O)C4(C)C)[C@]3(C)C(=O)C[C@]12C [Cucurbitacin E]', 'C. elegans', 'inhibition at 110 µM', 0);

Query: Entry under review: CCCCC(O)(Cn1cncn1)c1ccc(Cl)cc1Cl (stereo not drawn) [Hexaconazole] . Reported inhibition at 110 µM?
Reply: 14

Query: Try the molecule C[C@@H]1CCO[C@H]2Cn3cc(C(=O)NCc4ccc(F)cc4F)c(=O)c(O)c3C(=O)N12 [Dolutegravir]
Reply: 25

Query: Try the molecule O=C1C=CC[C@@H]2[C@H]3CCCN4CCC[C@@H](CN12)[C@@H]34 [Sophocarpine]
Reply: 11
